Tested on: 3D7-strain P. falciparum asexual parasites
Assay: P. falciparum asexual growth inhibition assay (Pf GIA)
Type: cell-based, Plasmodium falciparum
Conditions: dose response confirmation; read-out: Pf asexual growth inhibition assays IC50
Outcome measure: IC50 (nM)
The response must be a number in nM with no trailing unit.

[Q] Give its IC50 value. Item: `Cc1ccc(-n2c(Sc3ncnc4sccc34)nnc2N2CCCC2)cc1`
[A] 275

[Q] Dear colleague, I am looking for the recorded IC50 of the following compound: COc1ccc2nccc(NC(=O)C3(O)CCC(NCc4ccc5c(c4)NCCS5)CC3)c2n1.Cl (centres unmarked)
[A] 1040

[Q] Which IC50 is listed for COc1ccc2ncc(F)c(NC(=O)C3CCC(NCc4cc5cc(F)cc(F)c5[nH]4)CC3)c2n1.Cl (centres unmarked) ?
[A] 2430

[Q] # get_value(readout='IC50', item= `COc1cccc(C=Cc2nc(=O)c3ccccc3o2)c1OC` )
[A] 146

---

Task for the reader: assign each of the following compounds its reported IC50.
System: P. berghei ookinete development
Conditions: read-out: Pb Ookinete development assay IC50; dose response confirmation
Lab book: enter the figure in nM, no units written.

[Q] Look up IC50 for this compound: `COc1ccc2ncc(Cl)c(CCN3CCC(NCc4ccc5c(n4)NC(=O)CO5)CC3)c2c1.Cl`
[A] 1220

[Q] Name the recorded IC50 for `Cc1nc(C)c(-c2ccc(Oc3ccc(OC(F)(F)F)cc3)cc2)c(OC(=O)c2ccccc2)c1Cl` .
[A] 860

[Q] # input compound: COc1cc(OC)cc(-c2nn(-c3ccc([N+](=O)[O-])cc3C#N)c(=S)n2CC2CCCO2)c1 (centres unmarked) ; wanted: its IC50
[A] 5460

[Q] Suppose we examine the compound `CC(C)(CN)c1nc(-c2ccc(Br)c(O)c2)c(-c2ccncc2)[nH]1.Cl` ; what IC50 value has been reported?
[A] 1930

[Q] Field request: IC50 | item: `Cc1noc(C)c1-c1ccc2c(Nc3ccc(C#N)cc3)c(C(N)=O)cnc2c1`
[A] 3830

[Q] Consider the compound `COc1ccc2c(=O)c(I)c(C)[nH]c2c1` and give its measured IC50.
[A] 140

[Q] Any idea what its IC50 is? The compound is `Cc1[nH]c(C)c(-c2ccc(-c3ccccc3F)nc2)c(=O)c1Cl`
[A] 432

[Q] State the recorded IC50 for this entry: `Cc1[nH]c(C)c(-c2ccc(Oc3cccc(OC(F)(F)F)c3)cc2)c(=O)c1Cl`
[A] 1130

---

Test system: HepG2 cells
Experiment: HepG2 cytotoxicity assay
Conditions: unified HepG2 cytotoxicity across the three screens
Procedure: Briefly, HepG2 cells were seeded onto compound-treated 384 well plates at a density of 2,500 cells per well in Minimal Essential Medium (MEM) plus 10% fetal bovine serum and 1% non-essential amino acids solution (NEAA). […] Cell viability was then measured in a fluorescent plate reader and percent inhibition calculated with respect to positive and negative controls.
Outcome measure: Unified cytotox (µM)
All answers are understood in µM, so give the number only.

[Q] Can you look up Unified cytotox on HepG2 cells for `CN1CCN(c2ccc(Nc3ncc([N+](=O)[O-])c(Nc4ccccc4O)n3)cc2)CC1.O=C(O)C(F)(F)F` ?
[A] 1.82

[Q] Param readout = Unified cytotox; param system = HepG2 cells; param query = `Cc1c(Cn2nc(Cl)c(N3CCNCC3)cc2=O)cccc1NC(=O)Nc1ccc(-c2ccccc2)cc1.O=C(O)C(F)(F)F` ; response: value
[A] 4.22

[Q] Lab note: need Unified cytotox with HepG2 cells for entry `CN1CCN(CCCNc2ncc3c(-c4ccc(NC(=O)Nc5cc(C(F)(F)F)ccc5F)c(F)c4)nn(C)c3n2)CC1.O=C(O)C(F)(F)F` , please look it up.
[A] 4.90

[Q] Under HepG2 cells: Unified cytotox value of `N=C(N)Nc1nc(-c2ccc(NCc3ccc(CNc4cccc(-c5csc(NC(=N)N)n5)c4)cc3)cc2)cs1` ?
[A] 4.79
